Where these numbers come from: patent US20260347372A1

# tgt: KRAS G12D (Homo sapiens, UniProt P01116, G12D)
# Sequence (P01116 with tags, fused parts or gaps isoform P01116-2 G12D): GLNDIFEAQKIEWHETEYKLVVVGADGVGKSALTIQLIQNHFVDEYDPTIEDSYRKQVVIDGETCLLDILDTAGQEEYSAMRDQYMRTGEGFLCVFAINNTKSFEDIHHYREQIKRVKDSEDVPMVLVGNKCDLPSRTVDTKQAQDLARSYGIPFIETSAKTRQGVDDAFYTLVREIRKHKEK
# procedure summary: SOS-catalyzed nucleotide exchange assay, KRAS G12D (Procedure A)
# Assay type: biochemical
# run parameters: guanine nucleotide exchange (GNE)
value type: pIC50
Numbers only, as −log10 of the molar value.

Record excerpt, results attached:
C#Cc1c(F)ccc2cc3[nH]ncc3c(-c3nccc4c3sc3nc(OC[C@@]56CCCN5C[C@H](F)C6)nc(N5C[C@H]6CC[C@@H](C5)N6)c34)c12 [Ex-56] : 8.35
CC12CC(COc3nc(N4C[C@H]5CC[C@@H](C4)N5)c4c(n3)sc3c(-c5c(C6CC6)c(Cl)cc6[nH]ncc56)nccc34)(CO1)C2 [Ex-23] : 5.71

Lab note: next compound to report on.
Field pIC50 (entry Cc1cc(N)nc(-c2nccc3c4c(N5C[C@H]6CC[C@@H](C5)N6)nc(OC[C@@]56CCCN5C[C@H](F)C6)nc4n(C)c23)c1C(F)(F)F [Ex-6] ) reads 6.04
